- assayTarget: M1 receptor (Rattus norvegicus, UniProt P08482)
- Construct: expressed in transfected cells
- procedureDetails: M1 PAM assay (FLIPR intracellular calcium), rat
- Assay type: cell-based
- cond: rat; modulator activity with EC20 of acetylcholine; FLIPR Ca2+; read-out: EC50 rat PAM
Answer each item with its documented EC50.
Just the number in nM, nothing appended.

Output measured EC50 for this item: Cn1cc(-c2ccc(Cn3cc(C(=O)N[C@H]4CCCC[C@@H]4F)c4ncccc43)c(F)c2)cn1 (racemic) [Example 58] 453

Output measured EC50 for this item: Cn1cc(-c2ccc(Cn3cc(C(=O)N[C@H]4COCC[C@@H]4O)c4ncccc43)c(F)c2)cn1 [Example 41] 51

Output measured EC50 for this item: Cn1cc(-c2ccc(Cn3cc(C(=O)NC[C@@H](O)c4ccccc4)c4ncccc43)c(F)c2)cn1 [Example 34] 494

Output measured EC50 for this item: Cn1cc(-c2ccc(Cn3cc(C(=O)NCC4(O)CC4)c4ncccc43)c(F)c2)cn1 [Example 65] 1390

----------
Answer each item with its documented EC50.
- assayTarget: human M1 (Homo sapiens)
- Construct: expressed in transfected cells; host or cells: CHO cells
- Sequence (P11229 whole entry): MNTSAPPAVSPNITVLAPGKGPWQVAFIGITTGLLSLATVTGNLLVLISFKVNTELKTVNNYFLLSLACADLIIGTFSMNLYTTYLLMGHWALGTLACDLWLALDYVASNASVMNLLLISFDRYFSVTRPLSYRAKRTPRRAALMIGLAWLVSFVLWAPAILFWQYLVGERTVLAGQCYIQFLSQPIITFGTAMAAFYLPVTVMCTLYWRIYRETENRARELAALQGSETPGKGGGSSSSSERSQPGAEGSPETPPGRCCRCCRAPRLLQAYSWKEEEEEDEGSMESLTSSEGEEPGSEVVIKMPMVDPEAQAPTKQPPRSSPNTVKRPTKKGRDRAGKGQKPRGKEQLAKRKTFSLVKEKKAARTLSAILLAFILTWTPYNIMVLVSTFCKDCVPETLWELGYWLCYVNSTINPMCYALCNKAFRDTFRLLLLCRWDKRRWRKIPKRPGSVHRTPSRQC
- procedureDetails: M1 PAM assay (FLIPR intracellular calcium, CHO human M1)
- Type: cell-based
- cond: human M1 in CHO cells; modulator activity with EC20 of acetylcholine; FLIPR Ca2+; read-out: EC50 h PAM
Just the number in nM, nothing appended.

Output measured EC50 for this item: Cn1cc(-c2ccc(Cn3cc(C(=O)N[C@H](CO)C(C)(C)C)c4ncccc43)c(F)c2)cn1 [Example 27] 126

Output measured EC50 for this item: Cn1cc(-c2ccc(Cn3cc(C(=O)N[C@H]4CCCC[C@@H]4F)c4ncccc43)c(F)c2)cn1 (racemic) [Example 58] 239

Output measured EC50 for this item: Cn1cc(-c2ccc(Cn3cc(C(=O)N[C@H]4CCCC[C@@H]4O)c4ncccc43)c(F)c2)cn1 [Example 2] 9.86

Output measured EC50 for this item: Cn1cc(-c2ccc(Cn3cc(C(=O)NCC(O)c4ccccc4)c4ncccc43)c(F)c2)cn1 (stereo not drawn) [Example 31] 429

Output measured EC50 for this item: Cn1cc(-c2ccc(Cn3nc(C(=O)N[C@H]4CCCC[C@@H]4O)c4ncccc43)c(F)c2)cn1 [Example 6] 25.3

Output measured EC50 for this item: CC[C@H](C)[C@@H](CO)NC(=O)c1cn(Cc2ccc(-c3cnn(C)c3)cc2F)c2cccnc12 [Example 26] 143

----------
Answer each item with its documented EC50.
- assayTarget: M1 receptor (Rattus norvegicus)
- Construct: expressed in transfected cells
- Sequence (P08482 1-460): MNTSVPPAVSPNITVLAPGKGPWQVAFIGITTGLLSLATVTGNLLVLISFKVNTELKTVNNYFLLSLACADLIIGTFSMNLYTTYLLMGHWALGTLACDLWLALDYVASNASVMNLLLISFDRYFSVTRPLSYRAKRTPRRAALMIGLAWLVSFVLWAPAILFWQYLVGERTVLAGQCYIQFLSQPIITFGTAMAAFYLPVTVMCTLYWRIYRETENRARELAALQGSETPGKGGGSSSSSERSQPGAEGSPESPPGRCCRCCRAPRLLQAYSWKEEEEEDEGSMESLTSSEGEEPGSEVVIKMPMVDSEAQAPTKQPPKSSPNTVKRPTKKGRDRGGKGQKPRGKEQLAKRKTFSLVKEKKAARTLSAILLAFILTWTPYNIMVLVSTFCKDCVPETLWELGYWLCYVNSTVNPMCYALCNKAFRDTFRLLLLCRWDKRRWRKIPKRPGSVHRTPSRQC
- procedureDetails: M1 PAM assay (FLIPR intracellular calcium), rat
- Format: cell-based
Quote the value and follow it with the unit of measurement.

Report the value of EC50 obtained on M1 receptor (Rattus norvegicus) for Cn1cc(-c2ccc(Cn3cc(C(=O)N[C@H]4CCCC[C@H]4O)c4ncccc43)c(F)c2)cn1 (racemic) . 123 nM

Report the value of EC50 obtained on M1 receptor (Rattus norvegicus) for Cn1cc(-c2ccc(Cn3cc(C(=O)N[C@H]4CCOC[C@@H]4O)c4ncccc43)c(F)c2)cn1 (single isomer, unassigned) [Example 59] . 18 nM

Report the value of EC50 obtained on M1 receptor (Rattus norvegicus) for `O=C(N[C@H]1CCCC[C@@H]1O)c1cn(Cc2cc(Br)ccc2F)c2cccnc12` . 1950 nM
